tested on: MDA-MB-231; assay: Antiproliferative activity against human MDA231 cells by MTT assay; format: functional, cell-based
Measured property: IC50 (µM)

Look over these answered cases.
>>> data_value("COc1ccc2cc(C(C)c3nnc(SC)o3)ccc2c1 (stereo unspecified)")
29.5
>>> data_value("COc1ccc2cc(C(C)C(=O)NN=C3CCN(C)CC3)ccc2c1 (stereo unspecified)")
72
>>> data_value("COc1ccc2cc(C(C)C(=O)NN3C(=O)C=CC3=O)ccc2c1 (stereo unspecified)")
11.1
>>> data_value("COc1ccc2cc(C(C)c3n[nH]c(=S)n3/N=C/c3cccc(Br)c3)ccc2c1 (stereo unspecified)")
8.14
>>> data_value("COc1ccc2cc(C(C)c3nnc4n3NC(=O)CS4)ccc2c1 (stereo unspecified)")
93.8
>>> data_value("COc1ccc2cc(C(C)c3n[nH]c(=S)n3/N=C/c3ccccc3)ccc2c1 (stereo unspecified)")
14.8
>>> data_value("COc1ccc2cc(C(C)c3nnc4n3N=C(c3ccccc3)CS4)ccc2c1 (stereo unspecified)")
49.2
>>> data_value("COc1ccc2cc(C(C)c3nnc(SC4CCCC4)o3)ccc2c1 (stereo unspecified)")
23.2

(A) COc1ccc2cc(C(C)C(=O)NN=C3CCCCCC3)ccc2c1 (stereo unspecified)
(B) COc1ccc2cc(C(C)c3nnc(SCc4ccccc4)o3)ccc2c1 (stereo unspecified)
// query Dear colleague, could you let me know whether A or B has the lower recorded IC50? Thanks. Identify your selection by its label.
// result A

(I) COc1ccc2cc(C(C)C(=O)NN=C3CCCCC3)ccc2c1 (stereo unspecified)
(II) COc1ccc2cc(C(C)C(=O)NN3C(=O)CCC3=O)ccc2c1 (stereo unspecified)
// query Dear colleague, could you let me know whether I or II has the lower recorded IC50? Thanks. Identify your selection by its label.
// result I
(I: 9.65 µM, II: 52.8 µM)

(A) COc1ccc2cc(C(C)c3nnc(-c4ccc(O)cc4)o3)ccc2c1 (stereo unspecified)
(B) COc1ccc2cc(C(C)c3n[nH]c(=S)n3/N=C/c3ccc(O)cc3)ccc2c1 (stereo unspecified)
// query Dear colleague, could you let me know whether A or B has the lower recorded IC50? Thanks. Identify your selection by its label.
// result B

(a) COc1ccc2cc(C(C)c3n[nH]c(=S)n3N)ccc2c1 (stereo unspecified)
(b) COc1ccc2cc(C(C)c3nnc(-c4ccc([N+](=O)[O-])cc4)o3)ccc2c1 (stereo unspecified)
(c) Cc1ccc(-c2cc(C(F)(F)F)nn2-c2ccc(S(N)(=O)=O)cc2)cc1 [CELECOXIB]
(d) CN(C)C/C=C/C(=O)Nc1cc2c(Nc3ccc(F)c(Cl)c3)ncnc2cc1O[C@H]1CCOC1 [AFATINIB]
// query // ranking: key=IC50, reverse=True Could you list the labels in the order requested?
// result b, a, c, d
(b: 66.3 µM, a: 41.8 µM, c: 22.8 µM, d: 7.5 µM)

(a) COc1ccc2cc(C(C)C(=O)NN=C3CCCC3)ccc2c1 (stereo unspecified)
(b) COc1ccc2cc(C(C)C(=O)NN3C(=O)c4ccccc4C3=O)ccc2c1 (stereo unspecified)
// query // which entry has the larger IC50 value, a or b ? Identify your selection by its label.
// result a
(a: 80.7 µM, b: 37.2 µM)

Origin of values: ChEMBL document CHEMBL4265919
